Test system: 786-0 complex spheroid viability
Assay: Anticancer human tumor 786-0 cell line growth inhibition;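 also: spheroids exposed to agents for seven days before readout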
Conditions: curve of first compound; second compound 0.316 µM
Excerpt: Multicellular complex tumor spheroid response to LSD1 Inhibitor Iadademstat in combination with a variety of drugs and investigational agents in selected tumor cell lines The current study was undertaken to assess response to LSD1 inhibitors in combination with standard-of-care drugs and investigational agents in solid tumor complex spheroid models as well as in the K-562 leukemia. […] Compounds. […] If the clinical Cmax for an agent had not been determined, the highest concentration tested was 10 microM. […]
pIC50: −log10 of the molar value.
If the reported pIC50 equals or exceeds 7, assign Fulfilled. If not, assign Not fulfilled.

{"columns": ["MOLECULE", "ASSIGNED_CLASS"],
 "data": [
  ["CC(C)c1c(-c2ccccc2)nc2c(C#N)c[nH]n2c1=O + NC1CC1c1ccc(-c2cccc(O)c2)cc1", "Not fulfilled"],
  ["Nc1ccccc1NC(=O)c1ccc(CNC(=O)OCc2cccnc2)cc1 + NC1CCC(NC2CC2c2ccccc2)CC1", "Not fulfilled"],
  ["CC(C)CC(NC(=O)C(Cc1ccccc1)NC(=O)c1cnccn1)B(O)O (centres undefined) + NC1CC1c1ccc(-c2cccc(O)c2)cc1", "Fulfilled"],
  ["O=C(C=Cc1cccc(S(=O)(=O)Nc2ccccc2)c1)NO + NC1CCC(NC2CC2c2ccccc2)CC1", "Not fulfilled"],
  ["COc1ccc([C@@H](O)c2cc(-c3ncnc4cc(N5CCOCC5)ccc34)c(F)cc2Cl)nn1 + NC1CCC(NC2CC2c2ccccc2)CC1", "Not fulfilled"],
  ["CC1(C)CCC(CN2CCN(c3ccc(C(=O)NS(=O)(=O)c4ccc(NCC5CCOCC5)c([N+](=O)[O-])c4)c(Oc4cnc5[nH]ccc5c4)c3)CC2)=C(c2ccc(Cl)cc2)C1 + NC1CCC(NC2CC2c2ccccc2)CC1", "Not fulfilled"],
  ["CC(C)CC(NC(=O)CNC(=O)c1cc(Cl)ccc1Cl)B1OC(=O)CC(CC(=O)O)(C(=O)O)O1 (centres undefined) + NC1CC1c1ccc(-c2cccc(O)c2)cc1", "Fulfilled"],
  ["CC(C)CC(NC(=O)CNC(=O)c1cc(Cl)ccc1Cl)B1OC(=O)CC(CC(=O)O)(C(=O)O)O1 (centres undefined) + NC1CCC(NC2CC2c2ccccc2)CC1", "Fulfilled"],
  ["COc1cc(C2c3cc4c(cc3C(OC3OC5COC(C)OC5C(O)C3O)C3COC(=O)C23)OCO4)cc(OC)c1O (centres undefined) + NC1CCC(NC2CC2c2ccccc2)CC1", "Not fulfilled"],
  ["COc1cc(C2c3cc4c(cc3C(OC3OC5COC(C)OC5C(O)C3O)C3COC(=O)C23)OCO4)cc(OC)c1O (centres undefined) + NC1CC1c1ccc(-c2cccc(O)c2)cc1", "Not fulfilled"],
  ["CCN(c1cc(-c2ccc(CN3CCOCC3)cc2)cc(C(=O)NCc2c(C)cc(C)[nH]c2=O)c1C)C1CCOCC1 + NC1CCC(NC2CC2c2ccccc2)CC1", "Not fulfilled"],
  ["Nc1ccn(C2OC(CO)C(O)C2(F)F)c(=O)n1 (centres undefined) + NC1CCC(NC2CC2c2ccccc2)CC1", "Fulfilled"],
  ["O=C(c1cc(Cc2n[nH]c(=O)c3ccccc23)ccc1F)N1CCN(C(=O)C2CC2)CC1 + NC1CC1c1ccc(-c2cccc(O)c2)cc1", "Not fulfilled"]
]}
